Origin of the recorded values: paper PMC5917077

# TARGET_DESC: CD22 (Siglec-2) (Homo sapiens, UniProt P20273)
# Sequence (P20273 20-326 limits assumed): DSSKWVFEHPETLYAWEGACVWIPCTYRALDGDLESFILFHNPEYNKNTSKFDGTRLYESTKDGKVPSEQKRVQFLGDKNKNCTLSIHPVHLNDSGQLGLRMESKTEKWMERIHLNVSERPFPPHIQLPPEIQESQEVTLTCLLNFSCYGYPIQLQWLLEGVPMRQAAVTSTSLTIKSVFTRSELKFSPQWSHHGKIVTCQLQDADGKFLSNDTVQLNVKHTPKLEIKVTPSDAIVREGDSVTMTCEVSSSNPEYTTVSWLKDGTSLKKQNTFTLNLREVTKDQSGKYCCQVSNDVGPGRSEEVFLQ
RESULT_TYPE: IC50

Annotate the compound O=C(Cc1ccc(-c2ccc(O)cc2)cc1)NC[C@@H](O)[C@@H](O)[C@@H]1OC(OCc2ccc(F)cc2)(C(=O)O)C[C@H](O)[C@H]1NC(=O)CO (stereo partly shown) with its measured IC50.
~100 nM

====

# TARGET_DESC: UniProtKB P35329
# Sequence (P35329 22-347 limits assumed): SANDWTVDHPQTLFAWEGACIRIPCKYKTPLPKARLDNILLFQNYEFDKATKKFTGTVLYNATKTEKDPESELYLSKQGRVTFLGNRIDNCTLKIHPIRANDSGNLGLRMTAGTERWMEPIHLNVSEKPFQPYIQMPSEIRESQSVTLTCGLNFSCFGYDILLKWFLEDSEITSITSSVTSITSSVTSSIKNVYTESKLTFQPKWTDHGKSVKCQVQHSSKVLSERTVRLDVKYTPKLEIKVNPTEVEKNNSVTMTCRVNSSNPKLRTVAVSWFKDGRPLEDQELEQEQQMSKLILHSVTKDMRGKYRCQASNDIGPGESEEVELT
RESULT_TYPE: IC50

Fill in IC50 for O=C(Cc1ccc(-c2ccc(O)cc2)cc1)NC[C@@H](O)[C@@H](O)[C@@H]1OC(OCc2ccc(F)cc2)(C(=O)O)C[C@H](O)[C@H]1NC(=O)CO (stereo partly shown) tested with UniProtKB P35329.
~0.1 µM
